Assignment: determine reported Ho (protein surface hydrophobicity, slope of RFU versus MdxE concentration) for the given compounds.
biological target: MdxE (Thermoanaerobacter mathranii subsp. mathranii); assay: ANS fluorescence determination of protein surface hydrophobicity (Ho) of MdxE-ligand complexes; set-up: species or system Thermoanaerobacter mathranii subsp. mathranii A3; conditions: MdxE 2–14 µM, 350 µM ligand, 20 µM ANS, λmax = 485 nm; letters = Tukey groups (p < 0.05)
Sequence (A0ABM5LRQ5 entry or part of it): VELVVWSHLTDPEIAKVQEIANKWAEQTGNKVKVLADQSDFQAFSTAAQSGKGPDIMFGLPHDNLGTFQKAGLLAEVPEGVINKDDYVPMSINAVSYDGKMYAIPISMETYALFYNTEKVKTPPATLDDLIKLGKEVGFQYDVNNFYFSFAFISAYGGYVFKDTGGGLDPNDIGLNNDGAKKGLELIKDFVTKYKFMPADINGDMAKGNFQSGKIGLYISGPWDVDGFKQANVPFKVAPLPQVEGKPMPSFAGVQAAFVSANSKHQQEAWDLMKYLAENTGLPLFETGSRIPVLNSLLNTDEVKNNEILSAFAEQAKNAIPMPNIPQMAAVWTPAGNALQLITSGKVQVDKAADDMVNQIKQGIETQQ
Marks after values point to notes of the source that are not given here.

INSERT INTO assay_data (compound, measured) VALUES
  ('OC[C@H]1O[C@@H]2O[C@H]3[C@H](O)[C@@H](O)[C@@H](O[C@H]4[C@H](O)[C@@H](O)[C@@H](O[C@H]5[C@H](O)[C@@H](O)[C@@H](O[C@H]6[C@H](O)[C@@H](O)[C@@H](O[C@H]7[C@H](O)[C@@H](O)[C@@H](O[C@H]8[C@H](O)[C@@H](O)[C@@H](O[C@H]9[C@H](O)[C@@H](O)[C@@H](O[C@H]1[C@H](O)[C@H]2O)O[C@@H]9CO)O[C@@H]8CO)O[C@@H]7CO)O[C@@H]6CO)O[C@@H]5CO)O[C@@H]4CO)O[C@@H]3CO', '24.5 ^c'),
  ('OC[C@H]1O[C@@H]2O[C@H]3[C@H](O)[C@@H](O)[C@@H](O[C@H]4[C@H](O)[C@@H](O)[C@@H](O[C@H]5[C@H](O)[C@@H](O)[C@@H](O[C@H]6[C@H](O)[C@@H](O)[C@@H](O[C@H]7[C@H](O)[C@@H](O)[C@@H](O[C@H]8[C@H](O)[C@@H](O)[C@@H](O[C@H]1[C@H](O)[C@H]2O)O[C@@H]8CO)O[C@@H]7CO)O[C@@H]6CO)O[C@@H]5CO)O[C@@H]4CO)O[C@@H]3CO', '41.8 ^b'),
  ('OC[C@H]1O[C@H](O[C@H]2[C@H](O)[C@@H](O)C(O)O[C@@H]2CO)[C@H](O)[C@@H](O)[C@@H]1O (mixture of isomers)', '15.1 ^d');

Query :: Consider the compound OC[C@H]1O[C@H](O[C@H]2[C@H](O)[C@@H](O)[C@@H](O[C@H]3[C@H](O)[C@@H](O)C(O)O[C@@H]3CO)O[C@@H]2CO)[C@H](O)[C@@H](O)[C@@H]1O (mixture of isomers) and give its measured Ho (protein surface hydrophobicity, slope of RFU versus MdxE concentration).
Result :: 24.3 ^c
